Cited source: PubChem BioAssay AID1159580

- ASSAY_INFO: chemical genetic growth profiling, strain panel (AID 1159580);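 also: tested at 20 µM; growth read once vehicle control cultures reached saturation at 30 °C; lower values mean less growth of the strain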
- EXPERIMENTAL_CONDITIONS: S. cerevisiae deletion strains, growth OD, locus YLR320W, strain mms22, active compounds read low
The campaign covered roughly 5,500 compounds. About 2,000 (36%) were called active. About 18% were inconclusive and are not listed. Some of the results follow.
We label by threshold. Values of normalized growth strictly beneath 1 are condition met. Values of 1 and up are condition not met.

[
  {
    "COMPOUND": "CC(C)=CCCC1(C)C=Cc2c(O)c3c(c(CC=C(C)C)c2O1)OC12C(=CC4CC1C(C)(C)OC2(C/C=C(/C)C(=O)O)C4=O)C3=O (centres undefined)",
    "CLASS_NAME": "condition met"
  },
  {
    "COMPOUND": "Clc1ccccc1C(c1ccccc1)(c1ccccc1)n1ccnc1",
    "CLASS_NAME": "condition met"
  },
  {
    "COMPOUND": "C[C@@H]1C(=O)O[C@H]2[C@H]1CC[C@@]1(C)C=CC(=O)[C@@]3(C)O[C@@]213",
    "CLASS_NAME": "condition not met"
  }
]

---

- ASSAY_INFO: chemical genetic growth profiling, strain panel (AID 1159580);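 also: tested at 20 µM; growth read once vehicle control cultures reached saturation at 30 °C; lower values mean less growth of the strain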
- EXPERIMENTAL_CONDITIONS: S. cerevisiae deletion strains, growth OD, locus YER015W, strain faa2
Hit rate of the full screen: of about 5,500 compounds, about 2,000 (36%) were called active. About 18% were inconclusive and are not listed. Rule as the data show it: active = normalized growth mostly below about 0.91 (no sharp cut-off); inconclusive = no clear call, values can overlap the other calls; inactive = mostly above about 0.92. Some of the results follow.
Classes used: active, inactive

[
  {
    "COMPOUND": "CC1OC(=O)C(C(C)C)NC(=O)C(C(C)C)OC(=O)C(C(C)C)NC(=O)C(C)OC(=O)C(C(C)C)NC(=O)C(C(C)C)OC(=O)C(C(C)C)NC(=O)C(C)OC(=O)C(C(C)C)NC(=O)C(C(C)C)OC(=O)C(C(C)C)NC1=O (configuration not stated)",
    "CLASS_NAME": "active"
  },
  {
    "COMPOUND": "COc1c(-c2coc3cc4c(cc3c2=O)CC(OC(C)=O)C(C)(C)O4)ccc2c1C=CC(C)(C)O2 (configuration not stated)",
    "CLASS_NAME": "inactive"
  },
  {
    "COMPOUND": "CCC(C)C(NC)C(=O)O (configuration not stated)",
    "CLASS_NAME": "inactive"
  },
  {
    "COMPOUND": "C[C@]12CCC(=O)C=C1CCC1C2[C@@H](O)C[C@@]2(C)C1CC[C@]2(O)C(=O)CO (some centres not stated)",
    "CLASS_NAME": "inactive"
  },
  {
    "COMPOUND": "C[C@@H]1CC[C@H]2[C@@H](C)C(O)O[C@@H]3O[C@@]4(C)CC[C@@H]1[C@]32OO4 (some centres not stated)",
    "CLASS_NAME": "active"
  },
  {
    "COMPOUND": "COC(=O)C[C@H]1C(C)(C)C2(O)OC34CC2C(=O)[C@]1(C)C3CC[C@]1(C)C4=CC(=O)O[C@H]1c1ccoc1 (some centres not stated)",
    "CLASS_NAME": "inactive"
  },
  {
    "COMPOUND": "Nc1ccccc1C(=O)CC(N)C(=O)O (configuration not stated)",
    "CLASS_NAME": "inactive"
  }
]
